# System: SNB-75
# assay info: NCI tumour cell line growth inhibition, 48 h
The source made the active and inactive calls. No stated cut-off is given here; in the data, active = GI50 up to about 1.1 µM and inactive = higher. *1 amine or outer side, *2 acyl side, *3 side chain or, on linkers, in order; H or OH if unused. Where a SMILES comes first, the peptide text is derived from it. [ ]: non-standard residue; d: D form. The star is where a group is joined. ξ: configuration not given here. NMeY = CN[C@@H](Cc1ccc(O)cc1)C(=O)O; Ethylenediamine = C(CN[*:2])N[*:1]; ξNMeL = CNC(CC(C)C)C(=O)O; Cbz = O=C(OCc1ccccc1)*; Lac = C[C@H](O)C(=O)O; ξA = CC(N)C(=O)O
recorded metric: GI50

Suppose we examine the molecule `C/C(=N\Nc1nc2ccccc2[nH]1)c1ncccn1` ; what GI50 value has been reported?
0.119 µM (active)

Requested field: GI50. Item: COc1ccc(C[C@@H](C(=O)NCCNC(=O)C(CC(C)C)N(C)C(=O)[C@@H]2CCCN2C(=O)[C@H](C)O)N(C)C(=O)[C@@H]2CCCN2C(=O)[C@H](CC(C)C)NC(=O)C(C)NC(=O)OCc2ccccc2)cc1 (stereo not given in full) (Cbz-[ξA]LP[NMeY](Me)-{Ethylenediamine-ξNMeL-Pro-Lac})
89.5 µM (inactive)

Looking for the measured GI50 of `CCOC(=O)Cn1nnc2cc(Nc3nc4ccccc4nc3C(=O)OCC)ccc21` , can you help?
4.21 µM (inactive)

// returns reported GI50 for input CCOC(=O)NC(Nc1ncccn1)(C(=O)OCC)C(F)(F)F (stereo not given)
> 100 µM (inactive)

Recorded GI50 for CC1CC(=O)N(N(C)C)C(C#N)(C#N)C1(C#N)C#N (stereo not given) , please?
> 35.6 µM (inactive)

###

# Tested on: CCRF-CEM
# assay info: NCI tumour cell line growth inhibition, 48 h
The source made the active and inactive calls. Cut-off read from the data, not from the text of the source: active = GI50 up to about 1.1 µM and inactive = higher. *1 amine or outer side, *2 acyl side, *3 side chain or, on linkers, in order; H or OH if unused. Where a SMILES comes first, the peptide text is derived from it. Square brackets hold non-standard residues; d marks the D form. Peptide text beside a SMILES is read from it. [ ]: non-standard residue; d: D form. The star is where a group is joined. * marks the point of attachment. ξ: configuration not given here. NMeY = CN[C@@H](Cc1ccc(O)cc1)C(=O)O; Ethylenediamine = C(CN[*:2])N[*:1]; ξNMeL = CNC(CC(C)C)C(=O)O; Cbz = O=C(OCc1ccccc1)*; Lac = C[C@H](O)C(=O)O; ξA = CC(N)C(=O)O
Hi! Could you answer with just one of these? TRUE for active, FALSE for inactive

In this assay, the call recorded for CC(O)c1cc2c(s1)C(=O)c1sccc1C2=O (stereo unspecified) was what?
TRUE

Field: outcome | Entry: `Cn1ncc2[nH]cnc2c1=S`
FALSE

Outcome? COc1ccc(C[C@@H](C(=O)NCCNC(=O)C(CC(C)C)N(C)C(=O)[C@@H]2CCCN2C(=O)[C@H](C)O)N(C)C(=O)[C@@H]2CCCN2C(=O)[C@H](CC(C)C)NC(=O)C(C)NC(=O)OCc2ccccc2)cc1 (stereo partly specified) (Cbz-[ξA]LP[NMeY](Me)-{Ethylenediamine-ξNMeL-Pro-Lac})
FALSE

Kindly provide the recorded test outcome for the following molecule: `CCSc1nc(-c2cccs2)nc2ccc(I)cc12`
FALSE

Recorded test call requested for `CSc1c(CC(=O)O)n(Cc2ccccc2)c2ccccc12`
FALSE

How did this test come out for `Cc1nn(C(=O)CC(=O)Nc2ccc(Cl)cc2)c(C)c1/N=N/c1ccccc1C(=O)O` ?
FALSE

Entry Cc1nn(C(=O)Cc2ccccc2)c2c1C(c1ccc(Cl)cc1)SC(=N)N2 (stereo unspecified) : call = ?
FALSE

I would be grateful if you could indicate the recorded call for O=C1Sc2sc(=S)sc2SC1c1ccccc1 (stereo unspecified) .
FALSE

For CC(=O)OC1C[C@@H](C)C2(C[C@H](O)c3ccoc3)C(=O)OC[C@]13C2CCC(O)C31CO1 (stereo partly specified) , what call appears in the results of this test?
FALSE

What was the test verdict on `Cc1cc(CC(O)(C(F)(F)F)C(F)(F)F)cc(CC(O)(C(F)(F)F)C(F)(F)F)n1` ?
FALSE

For `O=C1C=CC(=C(c2ccc(O)cc2)c2ccc(O)cc2)C=C1` , what call appears in the results of this test?
FALSE

Fill in: this test's call for `COC(=O)[C@@H]1C[C@@]23CCCN4CC[C@@]5(c6cccc(OC)c6N(C=O)[C@]15CC2)[C@@H]43` is ___
FALSE

Hi, do you know how `COc1cc([C@@H]2c3cc4c(cc3[C@@H](NC(=O)NO)[C@H]3COC(=O)[C@H]23)OCO4)cc(OC)c1O` came out in this test?
FALSE

Please state the recorded outcome for this molecule: `COc1cc2c[n+](C)c3c4ccccc4ccc3c2cc1OC`
FALSE

Short answer needed: outcome of this test for C#C[C@]1(O)CCC2C3CCc4cc(Oc5nc(F)nc(-c6c7cc8ccccc8cc7c7n6CCS7)n5)ccc4C3CCC21C (stereo partly specified) ?
FALSE

State the result this test recorded for `C#CC[C@@H]1C(=O)N(Cc2ccc(OC)cc2)[C@@H](C(C)C)C(=O)N1Cc1ccc(OC)cc1` .
TRUE

Per the assay record, what outcome was assigned to Cc1cccc2oc3c(c(=O)c12)CC(O)C(C)(C)O3 (stereo unspecified) ?
FALSE

Dear all, I need the recorded test outcome for `CC1=N/C(=C\c2ccc(C)cc2)C(=O)O1` , thank you.
FALSE

Please state the recorded outcome for this molecule: `O=C(/C=C/c1ccccc1O)c1ccccc1Cl`
FALSE

Record request — test call for `CC(=O)N1c2ccccc2N(C(C)=O)C1c1ccc(C2N(C(C)=O)c3ccccc3N2C(C)=O)[nH]1`
FALSE

Test call, this molecule: `C/C1=C\[C@H](C)C[C@H](C)OC(=O)C[C@H](c2ccc(O)cc2)NC(=O)[C@H](Cc2ccc(O)c(I)c2)N(C)C(=O)[C@H](C)NC(=O)[C@@H](C)C1`
TRUE

Per the records of this test, what outcome belongs to CC(=O)O[C@H]1CC[C@@]2(C)C(=CC[C@@H]3C2CC[C@]2(C)Nc4nc5ccccc5cc4CC32)C1 (stereo partly specified) ?
FALSE

Call for entry CC(C)C(C/C=C1\CC(CO)(COC(=O)C(C)(C)C)OC1=O)C(C)C (stereo unspecified) :
FALSE

Write down the call the test reported for this molecule. Item: COC(=O)c1c(C)cccc1CC1Cc2c(C)cccc2C1=O (stereo unspecified)
FALSE

Dear colleague, could you share the recorded outcome for `Cc1cc(N(CCC#N)CCC#N)ccc1/N=N/c1ccc(S(N)(=O)=O)cc1` when you have a moment?
FALSE

What did this assay record as the result for `O=C1c2c(c(-c3ccccc3)c(-c3ccccc3)c(-c3ccccc3)c2-c2ccccc2)C(=O)N1c1cccc(Br)c1` ?
FALSE

What did the test return for `O=C1CCCCC/C1=C\c1ccc(Cl)cc1` ?
FALSE

I'd appreciate the recorded outcome for `CC(=O)c1csc2c1C(=O)c1ccccc1C2=O` from this test.
FALSE

GET /call?item= COc1ccc(C[C@@H](C(=O)N[C@@H](C)C(N)=O)N(C)C(=O)[C@@H]2CCCN2C(=O)[C@H](CC(C)C)NC(=O)C(C)NC(=O)OCc2ccccc2)cc1 (stereo partly specified) (Cbz-[ξA]LP[NMeY](Me)A-NH2) returns the recorded outcome of this test.
FALSE

Assay result, entry `COc1ccc(CCCCl)c(C2=NCCc3ccccc32)c1` — outcome?
FALSE

What was the test verdict on `O=C1CCCC2=C1CC1=C(CCCC1=O)N2c1ccccc1` ?
FALSE

Look up the recorded call for CCC(CO)Nc1nc(NCc2ccccc2)c2ncn(C(C)C)c2n1 (stereo not drawn) [(RS)-ROSCOVITINE] in this test.
FALSE

Entry `CO[C@H]1[C@H](O)[C@H](O[C@H]2CC[C@@]3(C)[C@H](CC[C@@H]4[C@@H]3CC[C@]3(C)[C@@H](C5=CC(=O)OC5)CC[C@]43O)C2)O[C@@H](C)[C@@H]1O` : call = ?
TRUE

# fetch the recorded call for CCCCN1C(=O)CC2[C@@H]3CCc4cc(OC(C)=O)ccc4C3CC[C@]2(C)C1=O (stereo partly specified) here
FALSE

Kindly provide the recorded test outcome for the following molecule: `Cc1cccc2c(N)c3cccc(C(=O)NCC[N+](C)(C)Cc4c([N+](=O)[O-])ncn4C)c3nc12`
FALSE

What did this assay record as the result for `Clc1ccc(C[P+](c2ccccc2)(c2ccccc2)c2ccccc2)c(Cl)c1` ?
FALSE

###

# Test system: HOP-92
# assay info: NCI tumour cell line growth inhibition, 48 h
Active and inactive are the calls of the source. Cut-off read from the data, not from the text of the source: active = GI50 up to about 1.1 µM and inactive = higher.
Valid outcomes are listed here; reply with one: active, inactive

Status in this test for Nc1ccc(C(=O)Nc2ccccc2N)cc1 [DINALINE] ?
inactive

Identify the outcome logged in this assay for the molecule shown: `N=C(N)SCc1ccc(Cl)c2ccccc12.O=[N+]([O-])c1c(O)c(Cl)cc(Cl)c1Cl`
inactive

What was the test verdict on CC1CN(c2ccc(Cl)cc2)CC(C)OC(=O)O1 (centres undefined) ?
inactive

Which outcome was entered for the molecule `CC(=O)C(=[N+]=[N-])C(=O)NCC#N` in this test?
inactive

GET /call?item= COC(=O)CCC(C)[C@H]1CCC2C3C(C[C@H](OC(C)=O)[C@@]21C)[C@@]1(C)CCC2(C[C@H]1C[C@H]3OC(C)=O)OOC1(CCCCC1)OO2 (some centres undefined) returns the recorded outcome of this test.
active

How did this test come out for NC(=O)CCC(NC(=O)c1cccc2c(=O)c3ccccc3[nH]c12)C(=O)O (centres undefined) ?
inactive

Give the logged outcome of this assay for the following molecule: CO[C@H]1[C@H](O)[C@H](O[C@H]2CC[C@@]3(C)[C@H](CC[C@@H]4[C@@H]3CC[C@]3(C)[C@@H](C5=CC(=O)OC5)CC[C@]43O)C2)O[C@@H](C)[C@@H]1O [NERIIFOLIN]
active

Any idea what this test logged for `CN(C)CCSc1cccc(-c2cc(-c3cccc(SCCN(C)C)c3)nc(SCCN(C)C)n2)c1` ?
active

Record lookup: outcome of this test for `COc1ccc(C[C@H](N)C(=O)N2C[C@H](CO)C[C@H](n3ccc(=O)[nH]c3=O)C2)cc1` ?
inactive

Given `O/N=C1\C=Cc2nn(-c3ccccc3)nc2\C1=N/O` , state the outcome it received in this test.
inactive

Please let me know the test result on file for `COc1cc(NCc2ccc3nc(OC)c(OC)nc3c2)cc(OC)c1OC` .
inactive

Outcome? `CSc1nc(C)cc(Nc2ccc(O)c(CN3CCCCC3)c2)n1`
inactive

Hi team, can someone confirm the assay call for CC(=O)OC1CCC2(C)C(CCC3C2CCC2(C)C(c4ccc(=O)oc4)C(OC(C)=O)CC32O)C1 (centres undefined) ?
active

For this molecule, state the assay outcome: `O=C1NC(=S)S/C1=C/c1ccco1`
inactive

Dear colleague, could you share the recorded outcome for COc1cc(C(c2cccc3ccccc23)N2C(=O)CCC2C(=O)O)cc(OC)c1OC (centres undefined) when you have a moment?
inactive

Test call, this molecule: `CS(=O)(=O)O.[Ag]`
inactive

Which result was noted for this molecule in the test: C=CCO[C@H]1CC[C@@]2(C)C(CC[C@]3(C)C2CC=C2[C@@H]4[C@@H](C)C(C)CC[C@]4(C(=O)O)CCC23C)C1(C)C (some centres undefined)
inactive

Given CC1CC(=O)N(N(C)C)C(C#N)(C#N)C1(C#N)C#N (centres undefined) , state the outcome it received in this test.
inactive

What was the test verdict on `Cc1nc(-c2ccccc2)c(C)n2c1nc1ccccc12` ?
inactive
